Source listed as the supplement of paper PMC8671470.

# Test system: HL-60
# runDescription: cell viability (% survival relative to DMSO control, bortezomib = 0%); higher = less cytotoxic
# conditionDetails: 10000 nM; 72 h
Measured cell viability by item
Numeric answer only, unit % assumed.

Reference set (6 entries):
NS(=O)(=O)c1ccc(S(=O)(=O)Nc2cccc3c(Cl)c[nH]c23)cc1; 37.1
O[C@H]1[C@H](O)[C@@H](O)CN2CC[C@H](O)[C@H]12; 143
O=C(CCl)N(CCCNC(=O)C(F)(F)F)c1ccc([N+](=O)[O-])cc1; -1.03
O=C(Oc1ccc([N+](=O)[O-])cc1)N1CCC(C(O)(c2ccc3c(c2)OCO3)c2ccc3c(c2)OCO3)CC1; 101
OCCN(CCO)c1nc(N2CCCCC2)c2nc(N(CCO)CCO)nc(N3CCCCC3)c2n1; 93.8
Cc1[nH]n(-c2ccccc2)c(=O)c1C1(C(F)(F)F)C(=O)N(c2ccccc2)C2=C1C(=O)CC(C)(C)C2 (stereo not drawn); 103

Data request: So what's the measured cell viability for this one? Oc1ncc(F)c(O)n1
Data returned: 27.1

Data request: Would you mind doing CC(C)(O)CNc1nc(Nc2ccnc(C(F)(F)F)c2)nc(-c2cccc(C(F)(F)F)n2)n1 as well?
Data returned: 106
